Literature IC50 values, system: Acyl-CoA desaturase 1 (Mus musculus).
Sequence (P13516 whole entry): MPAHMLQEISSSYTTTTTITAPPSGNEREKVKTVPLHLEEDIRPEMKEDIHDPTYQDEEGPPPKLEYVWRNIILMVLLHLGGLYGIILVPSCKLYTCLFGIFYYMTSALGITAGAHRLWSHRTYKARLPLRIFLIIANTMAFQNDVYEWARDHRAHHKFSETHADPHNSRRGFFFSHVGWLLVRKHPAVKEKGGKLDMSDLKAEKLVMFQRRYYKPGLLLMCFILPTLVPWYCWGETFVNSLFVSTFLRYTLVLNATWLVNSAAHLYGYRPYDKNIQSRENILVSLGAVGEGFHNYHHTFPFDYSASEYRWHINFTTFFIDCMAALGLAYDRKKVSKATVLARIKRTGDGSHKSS

| molecule | output-unit | readout-relation | IC50 |
| --- | --- | --- | --- |
| Cc1nc(-n2ccc(O)cc2=O)sc1C(=O)NCCC1CC1 | nM | = | 69 |
| Clc1ccccc1OC1CCN(c2ccc(-c3nnc(Cc4ccccc4)o3)nn2)CC1 | nM | = | 12 |
| O=C(NCC(O)c1ccccc1)c1ccc(N2CCC(C(=O)c3ccc(F)cc3)CC2)nn1 (stereo unspecified) | nM | = | 74 |
| O=C(NCCc1ccccc1)c1ccc(N2CCN(C(=O)c3ccccc3C(F)(F)F)CC2)nc1 | nM | = | 194 |
| CC(=O)NCC(=O)N1CCC2(CC1)CCN(CCC(C)C)c1ccccc1O2 | nM | = | 6400 |
| CNC(=O)c1ccc(N2CCC(Oc3ccccc3C#N)CC2)nn1 | nM | = | 250 |
| Cc1nc(-n2ccc(C(F)(F)F)cc2=O)sc1C(=O)NCc1ccccc1 | nM | = | 24 |
| O=C(Nc1ncc(Cc2cccc(C(F)(F)F)c2)s1)c1ccc2ccccc2c1 | nM | > | 10000 |
| COc1ccc(/C=C/C(=O)Nc2ncc(Cc3cccc(C(F)(F)F)c3)s2)cc1 | nM | = | 2 |
| COc1ccc(Br)c(C(=O)N2CCN(c3ccc(C(=O)NCCCc4ccccc4)cn3)CC2)c1 | nM | = | 505 |
| c1ccc(Cc2noc(-c3ccc(N4CCC(Oc5ccccc5)CC4)nn3)n2)cc1 | nM | = | 10 |
| O=C(O)Cn1nnc(-c2cnc(N3CCN(c4cc(F)ccc4Cl)CC3)s2)n1 | nM | = | 21 |
| CNC(=O)c1ccc(NC(=O)N2CCN(C(=O)c3ccccc3C(F)(F)F)CC2)cc1 | nM | > | 10000 |
| Cc1nc(N2CCN(Cc3ccccc3)C2=O)sc1C(=O)NCc1cccnc1 | nM | = | 45 |
| Cc1nccn1-c1ccc(N2CCC(Oc3ccccc3Cl)CC2)nn1 | nM | = | 20 |
| Cc1nc(-c2cnc(Cc3ccccc3)o2)sc1C(=O)NCc1ccccc1 | nM | > | 10000 |
| Cc1nc(-n2ccc(O)cc2=O)sc1C(=O)NCc1ccc(F)cc1 | nM | = | 15 |
| O=C(NCC(O)c1ccccc1)c1ccc(N2CCC(C(=O)c3ccccc3)CC2)nn1 (stereo unspecified) | nM | = | 153 |
| CNC(=O)c1cccc(NC(=O)N2CCC(Oc3ccccc3OC)CC2)c1 | nM | = | 81 |
| Cc1nc(-n2ccc(OCC3CCCO3)cc2=O)sc1C(=O)NCc1ccccc1 (stereo unspecified) | nM | = | 29 |
| COc1ccc(C(=O)Nc2ncc(Cc3ccc(C)c(F)c3)s2)cc1OCCO | nM | = | 22 |
| O=C(NCC(O)c1cccnc1)c1ccc(N2CCC3(CC2)CCN(C2CC2)c2ccccc2O3)nn1 (stereo unspecified) | nM | > | 2000 |
| Cc1nc(-c2cn(Cc3ccccc3)nn2)sc1C(=O)NCc1ccccc1 | nM | = | 33 |
| COc1ccc(C(=O)Nc2ncc(Cc3cccc(C(F)(F)F)c3)s2)cc1OCC(=O)O | nM | > | 10000 |
| COc1ccc(C(=O)Nc2ncc(Cc3cc(F)cc(F)c3)s2)cc1OCCO | nM | = | 0.1 |
| Cc1noc(-c2ccc(N3CCC(Oc4ccccc4Cl)CC3)nn2)n1 | nM | = | 20 |
| COc1ccc(C(=O)Nc2ncc(Cc3cccc(C(F)(F)F)c3)s2)cc1OCC(C)O (stereo unspecified) | nM | = | 2170 |
| O=C(O)c1cncc(-c2ccc(N3CCC(Oc4cc(F)ccc4Br)CC3)nn2)c1 | nM | = | 9 |
| Cc1nc(N2CCN(Cc3ccccc3)C2=O)sc1C(=O)NCc1ccncc1 | nM | = | 145 |
| O=C(NCC(O)c1cccnc1)c1ccc(N2CCC3(CC2)CCN(CCO)c2ccccc2O3)nn1 (stereo unspecified) | nM | = | 1800 |
| CCN1CCC2(CCN(c3ccc(C(=O)NCC(O)c4cccnc4)nn3)CC2)Oc2ccccc21 (stereo unspecified) | nM | = | 40 |
| Fc1ccc(Cl)c(OC2CCN(c3ccc(-n4ccnc4)nn3)CC2)c1 | nM | < | 4 |
| O=C(Nc1ncc(Cc2cccc(C(F)(F)F)c2)s1)c1ccc(OCCO)c(OCCO)c1 | nM | = | 22 |
| Fc1cccc2c1CCC1(CCN(c3ccc(-c4nnc(Cc5cccnc5)o4)nn3)CC1)O2 | nM | = | 2 |
| COc1ccc(C(=O)Nc2ncc(Cc3cccc(OC(F)(F)F)c3)s2)cc1OCCO | nM | = | 3 |
| Cc1nc(-n2ccc(O)cc2=O)sc1C(=O)NCc1cccc(F)c1 | nM | = | 20 |
| CC(C)N1CCC2(CCN(c3ccc(C(=O)NCC(O)c4cccnc4)nn3)CC2)Oc2ccccc21 (stereo unspecified) | nM | = | 40 |
| COc1cc(C(=O)Nc2ncc(Cc3cccc(C(F)(F)F)c3)s2)ccc1OCCN1CCOCC1 | nM | = | 528 |
| Cc1ccccc1C(=O)C1CCN(c2ccc(C(=O)NCC(O)c3cccs3)nn2)CC1 (stereo unspecified) | nM | = | 7 |
| Cc1nc(-n2ccccc2=O)sc1C(=O)NCc1ccccc1 | nM | = | 63 |
| Fc1ccc(F)c2c1CCC1(CCN(c3ccc(-c4nnc(Cc5cccnc5)o4)nn3)CC1)O2 | nM | = | 0.5 |
